// data source = patent US20140220040A1

assaySystem: T1, Human LRP6-Fc (R&D Systems), recombinant human LRP6 containing the complete extracellular domain (human, UniProt O75581 20-1370)
T1 construct: Bought protein; also called hLRP6; Fc-antigen; not shown: Fc part of the bought fusion protein
T1 sequence: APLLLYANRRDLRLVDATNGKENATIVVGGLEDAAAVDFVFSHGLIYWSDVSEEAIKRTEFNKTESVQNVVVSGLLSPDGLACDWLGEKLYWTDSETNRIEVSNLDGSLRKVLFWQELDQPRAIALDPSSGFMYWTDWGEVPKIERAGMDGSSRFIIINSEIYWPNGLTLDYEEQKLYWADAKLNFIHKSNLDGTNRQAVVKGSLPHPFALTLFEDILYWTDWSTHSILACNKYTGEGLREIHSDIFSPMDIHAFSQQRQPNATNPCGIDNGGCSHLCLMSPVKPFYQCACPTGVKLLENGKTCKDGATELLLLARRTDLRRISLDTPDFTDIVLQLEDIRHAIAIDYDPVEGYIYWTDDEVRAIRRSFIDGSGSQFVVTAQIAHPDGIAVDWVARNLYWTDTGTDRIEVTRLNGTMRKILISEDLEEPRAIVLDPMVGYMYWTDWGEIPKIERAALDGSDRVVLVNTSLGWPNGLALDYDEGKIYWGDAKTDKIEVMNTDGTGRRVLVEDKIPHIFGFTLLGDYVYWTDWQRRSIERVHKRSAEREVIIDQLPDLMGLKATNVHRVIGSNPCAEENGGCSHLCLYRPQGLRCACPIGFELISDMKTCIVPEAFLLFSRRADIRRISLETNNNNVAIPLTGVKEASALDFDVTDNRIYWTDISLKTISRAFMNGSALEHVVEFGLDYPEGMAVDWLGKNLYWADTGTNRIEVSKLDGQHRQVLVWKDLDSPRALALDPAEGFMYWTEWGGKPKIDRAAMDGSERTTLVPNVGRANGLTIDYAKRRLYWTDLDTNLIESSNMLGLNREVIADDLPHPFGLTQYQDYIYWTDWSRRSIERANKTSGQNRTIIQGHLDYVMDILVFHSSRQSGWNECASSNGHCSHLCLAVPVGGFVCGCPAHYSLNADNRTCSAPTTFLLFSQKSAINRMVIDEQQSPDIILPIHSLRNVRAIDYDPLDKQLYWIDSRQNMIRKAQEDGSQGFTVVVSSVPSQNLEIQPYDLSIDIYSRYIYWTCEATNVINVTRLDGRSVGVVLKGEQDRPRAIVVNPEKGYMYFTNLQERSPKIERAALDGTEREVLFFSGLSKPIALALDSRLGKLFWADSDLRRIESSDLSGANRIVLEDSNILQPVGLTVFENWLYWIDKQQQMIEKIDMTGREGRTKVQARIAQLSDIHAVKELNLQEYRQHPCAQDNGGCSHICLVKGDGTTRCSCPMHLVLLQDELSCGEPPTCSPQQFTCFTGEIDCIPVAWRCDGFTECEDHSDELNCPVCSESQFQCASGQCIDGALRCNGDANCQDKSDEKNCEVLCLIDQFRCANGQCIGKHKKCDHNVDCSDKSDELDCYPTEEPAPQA
method: SPR (BIAcore), mAb captured on anti-mouse chip, Fc-antigen injected, 1:1 model
propertyName: pKd
Units for pKd: none; it is -log10 of a concentration expressed in mol/L.

anti-LRP6 monoclonal antibody 606.4 (antibody, V domains shown, Murine hybridoma mAb, protein G purified; also called VH9/VL9) VH: DVKLVESGGGLVKVGGSLKLSCAASGFTFSSYYMSWVRQTPEKRLELVAVINSNGGSTYYSETVKGRFTISRDNAKNTLYLQMSSLKSEDTALYYCSRQPYYGNPFDYWGQGTTLTVSS VL: DIVLTQSPATLSVTPGDSVSLSCRASQSISNNLHWYQQKSHESPRLLIKYVSQSISGIPSRFSGSGSGTDFTLSINSVETEDFGMYFCQQSNNWPLTFGAGTKLEL	8.97

Query (binder): anti-LRP6 monoclonal antibody 135.16 (antibody, V domains shown, Murine hybridoma mAb, protein G purified; also called mAb135.16) VH: QVQLQQSGAELVKPGASVKMSCKAFGYTFTSYPIEWMKQNHGKSLEWIGNFHPYNDNTKYNEKFKGKAKLTVEKSSSTVYLELSRSTSDDSAVYYCARGYSGNYFSAMDYWGQGTSVTVSS VL: DIVMTQSQKFMSTSVGDRVSITCKASQNVRNDVAWYQQKPGQSPKSLIYLASNRHTGVPDRFTGSGSGTDFTLTISNVQSEDLADYFCLQHWNYPYTFGGGTKLEIKR ; field requested: pKd
9.14
